A collection of sequences and their measured recombinant UMI read abundance (log10)
experiment: recombinant UMI read abundance after kanamycin selection (control-corrected) (log10(CPM+1)); higher = more efficient recombination; extreme values may be limits of the assay; sequences stand for … in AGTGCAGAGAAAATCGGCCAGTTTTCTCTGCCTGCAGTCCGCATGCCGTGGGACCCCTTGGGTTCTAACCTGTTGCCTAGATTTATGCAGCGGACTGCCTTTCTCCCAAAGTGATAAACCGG…AGGTTGGTTTCACT; site = the 11-nt donor;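 further: IS621 bridge recombinase in Escherichia coli cells against a fixed T5 target plasmid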
Would you mind answering with just the numeric figure?

These solved cases illustrate the format of a correct answer.
orderedResidues | recombinant UMI read abundance (log10)
TCTAGACCATGGACCGGTTTTCCCGGTAATCCGTATTTGCC (site TCTAGACCTGG) | 0
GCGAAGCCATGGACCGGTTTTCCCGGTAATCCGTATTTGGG (site ACGAAGCCTCC) | 0.0189
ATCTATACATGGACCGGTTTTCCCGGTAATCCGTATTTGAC (site ATTTATACTGT) | 0
CAGCTAGCATGGACCGGTTTTCCCGGTAATCCGTATTTGAA (site CAGCTAGCTTT) | 2.54
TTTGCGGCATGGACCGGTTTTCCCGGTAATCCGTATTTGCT (site TTTTCGGCTAG) | 0.00374

input: Need recombinant UMI read abundance (log10) of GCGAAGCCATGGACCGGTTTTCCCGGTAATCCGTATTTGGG (site GCGAAGTCTCC) , thanks.
output: 0.00693

input: Need recombinant UMI read abundance (log10) of TTCGACCCATGGACCGGTTTTCCCGGTAATCCGTATTTGGC (site TTCGACCCTGC) , thanks.
output: 0

input: Need recombinant UMI read abundance (log10) of CTAGTCCCATGGACCGGTTTTCCCGGTAATCCGTATTTGGA (site CTAGTCCCTTC) , thanks.
output: 0.281

input: Need recombinant UMI read abundance (log10) of TAGCTCGCATGGACCGGTTTTCCCGGTAATCCGTATTTGAA (site TAGCTAGCTTT) , thanks.
output: 0.0173
